Measured values drawn from PubChem BioAssay for this set.

Test: reducers of polyQ inclusions in PC12 cells, cell-based, NGF-treated PC12, GFPQ80 (AID 1614);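 further: lower means fewer inclusions and 0 means no inclusions at all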
Conditions: PC12 NGF-treated GFP-polyQ80 inclusion reduction
Overview of reported inclusion score across a group of compounds:
Keep it simple and answer with nothing but the number.

Example entries and their recorded answers appear below.
1. C[C@@H]1CC2C3CCC4=CC(=O)C=C[C@]4(C)[C@@]3(F)[C@@H](O)C[C@]2(C)[C@@]1(O)C(=O)COP(=O)(O)O (stereo not given in full) ... 2.5
2. C=C1CC[C@H](O)C/C1=C/C=C1\CCC[C@]2(C)C([C@H](C)/C=C/[C@H](C)C(C)C)CC[C@@H]12 (stereo not given in full) ... 3
3. NC(N)=Nc1nc(CSCC/C(N)=N\S(N)(=O)=O)cs1 ... 1
4. C[C@]12CCC3c4ccc(O)cc4CCC3C1C[C@@H](O)[C@@H]2O (stereo not given in full) ... 2

// switching to the query compound
Data request: Which inclusion score reading was recorded for the compound C[C@]12CCC(=O)C=C1CCC1C2[C@@H](O)C[C@@]2(C)C1CC[C@]2(O)C(=O)CO (stereo not given in full) ?
Data returned: 2

###

// reported cell count per item
Assay: sensitizers of A549 cells to miR-34 induction, primary screen, imaging, A549 dox-inducible miR-34, nuclei and caspase counts (AID 1347080)
Conditions: A549 miR-34 inducible, Hoechst nuclei count, 48 h; measured here: total cells with miR-34 induction; stronger effect = lower value
Form: value (number only, do not type unit).

1. CCCCCN=C(N)NN=Cc1c[nH]c2ccc(OC)cc12 ... 18.5

Data request: Which cell count value is on record for COc1c(N2C[C@@H]3CCCN[C@@H]3C2)c(F)cc2c(=O)c(C(=O)O)cn(C3CC3)c12 ?
Data returned: 7060

Data request: Field entry: C#C[C@]1(OC(C)=O)CCC2C3CCC4=CC(=O)CC[C@@H]4C3CC[C@@]21C (some centres not stated)
Data returned: 10900

###

Test: inhibition of 3D7 malaria parasite growth – strain 3D7 (AID 2306);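 further: 0% = DMSO wells and 100% = chloroquine plus artemisinin control wells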
Settings: P. falciparum 3D7 erythrocytic growth, LDH absorbance, 72 h; at 2 µM; stronger effect = higher value
outcome-measure: growth inhibition (%)
The figure you give is taken to be in %; do not add the unit.

Please review the following examples before continuing.
1. Cc1[nH]c(C)c(-c2ccc(-c3ccc(F)cc3)cc2)c(=O)c1Cl ... 96
2. Cc1ccc(NC(=O)c2ccc3ncccc3c2)cc1OC1CCN(Cc2ccsc2)C1 (stereo not given) ... 88
3. CC(=O)Oc1c(Cl)c(C)nc(C)c1-c1ccc(Oc2ccc(OC(F)(F)F)cc2)cc1 ... 97
4. O=C(Nc1cccc(-c2ccc(CN3CCCC3)cc2)c1)c1ccc(F)cc1 ... 92
5. CNCCNCc1ccc(-c2ccc(-c3nc4ccc(C(F)(F)F)cc4[nH]3)cc2)cc1 ... 99

Turning to the following compound.
Data request: Field request: growth inhibition | item: CCCCCCCN(Cc1ccc(OC(C)(C)C(=O)OCC)cc1)C(=O)Nc1ccc(Cl)cc1OCC
Data returned: 95

###

Test: inhibitors of mitochondrial cytochrome c release, biochemical, purified mitochondria (AID 1603);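 further: mouse liver mitochondria challenged with calcium chloride; signal normalized to the plate average as 100%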
Conditions: stronger effect = lower value
Entries and their cytochrome c release ratio values follow.
Answer with a number only.

Consider the reported cytochrome c release ratio for these compounds:
1) CO[C@@H]1[C@@H](O[C@@H]2O[C@H](C)[C@@H](O[C@H]3C[C@@](C)(O)[C@H](O)[C@H](C)O3)[C@H](N(C)C)[C@H]2O)[C@@H](CC=O)C[C@@H](C)[C@@H](O[C@H]2CC[C@H](N(C)C)[C@@H](C)O2)/C=C/C=C/C[C@H](C)OC(=O)C[C@H]1O ... 1.41
2) CC(=O)OCC(=O)[C@@]1(O)[C@H](C)CC2C3CCC4=CC(=O)C=C[C@]4(C)[C@@]3(F)[C@@H](O)C[C@@]21C (stereo partly drawn) ... 1.17
3) OCC(S)CS (stereo not drawn) ... 0.92
4) NC(Cc1cc(I)c(Oc2ccc(O)c(I)c2)c(I)c1)C(=O)O (stereo not drawn) ... 4.78
5) C#C[C@]1(O)CCC2C3CCC4=CC(=O)CC[C@@H]4C3CC[C@@]21CC (stereo partly drawn) ... 0.87

Data request: Query: cytochrome c release ratio; subject: CCCCCCCCCCCCC[N+](C)(C)Cc1ccccc1
Data returned: 5.81

Data request: Similarly, C[C@@H]1CC2C3CCC4=CC(=O)C=C[C@]4(C)[C@@]3(F)[C@@H](O)C[C@]2(C)[C@@]1(O)C(=O)COP(=O)(O)O (stereo partly drawn) ?
Data returned: 0.74

Data request: What do you get for CC(=O)O[C@H]1C[C@@]2(C)[C@@H](C[C@@H](O)C3[C@]2(C)CC[C@H]2[C@H](C)[C@H](O)CC[C@]32C)/C1=C(/CCC=C(C)C)C(=O)O (stereo partly drawn) ?
Data returned: 1.24

Data request: For C[C@]12CCC(=O)C=C1CCC1C2[C@@H](O)C[C@@]2(C)C1CC[C@]2(O)C(=O)COC(=O)CCC(=O)O (stereo partly drawn) then?
Data returned: 1.58

Data request: Please do the same for C#C[C@]1(O)CCC2C3CCC4=CC(=O)CC[C@@H]4C3CC[C@@]21C (stereo partly drawn) as well.
Data returned: 1.47

Data request: Could you do the same for NC(COCc1ccccc1)C(=O)O (stereo not drawn) , please?
Data returned: 0.75

###

// reported glutamate uptake change for each item listed
Assay: enhancers of glutamate uptake in motor neurons, MN-1 cell line (AID 1612);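 further: tested at 1 µM final; 0% = mean of DMSO vehicle wells on each plate; positive means more glutamate uptake than control and negative means less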
Settings: MN-1 motor neuron cells, stronger effect = higher value
I only need the number, in %, no unit after it.

Below, 4 molecules whose answers are already recorded.
1. CN[C@@H]1C(OC2[C@H](O[C@H]3[C@H](O)[C@@H](O)[C@H](N=C(N)N)[C@@H](O)[C@@H]3N=C(N)N)OC(C)[C@]2(O)CO)OC(CO)C(O)C1O (some centres not stated) ... -1.61
2. OCC(S)CS (configuration not stated) ... 23.2
3. C1CCN2C[C@H]3C[C@H](CN4CCCC[C@@H]34)[C@H]2C1 ... 8.14
4. CCCCC(=O)O[C@H]1CCC2C3CCc4cc(O)ccc4C3CC[C@@]21C (some centres not stated) ... 19.7

Data request: Field request: glutamate uptake change | item: C=C1CC[C@H](O)C/C1=C/C=C1\CCC[C@]2(C)C([C@H](C)/C=C/[C@H](C)C(C)C)CC[C@@H]12 (some centres not stated)
Data returned: 0.71

Data request: And for CC1(C)C2CC[C@]3(C)C(C(=O)C=C4[C@@H]5C[C@@](C)(C(=O)O)CC[C@]5(C)CC[C@]43C)[C@@]2(C)CC[C@@H]1OC(=O)CCC(=O)O (some centres not stated) ?
Data returned: -2.75

Data request: // repeat for CO[C@@H]1[C@@H](O[C@@H]2O[C@H](C)[C@@H](O[C@H]3C[C@@](C)(O)[C@H](O)[C@H](C)O3)[C@H](N(C)C)[C@H]2O)[C@@H](CC=O)C[C@@H](C)[C@@H](O[C@H]2CC[C@H](N(C)C)[C@@H](C)O2)/C=C/C=C/C[C@H](C)OC(=O)C[C@H]1O and report
Data returned: -5.09

###

Target: L-lactate dehydrogenase (Plasmodium falciparum (isolate CDC / Honduras))
Experiment: PfLDH activity inhibition – cell lysate, 3D7 strain, counter-screen for P. falciparum growth inhibition project (AID 2304);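 further: 0% = vehicle and 100% = reference inhibitor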
Conditions: P. falciparum 3D7 crude extract, LDH APAD/NBT absorbance; at 2 µM; stronger effect = higher value
Each entry below carries its reported inhibition.
Just the number in %, nothing appended.

1. Oc1ccc2[nH]c(-c3cccc(F)c3)nc2c1CN1CCC(N2CCCC2)CC1 ... -6

Data request: Record request: inhibition value, item CC(c1cccc(Nc2nccc(-c3c(-c4cccc(NC(=O)c5c(F)cccc5F)c4)nn4ncccc34)n2)c1)S(C)(=O)=O (stereo not given)
Data returned: 4

Data request: Record: CC(=O)Nc1ccc(OCCCCCOc2ccc(NC(C)=O)cc2Cl)c(Cl)c1
Data returned: -7

Data request: // same read-out, input: Cc1cccc(Nc2nc(NCCCCN)nc3cc[nH]c(=O)c23)c1
Data returned: 0

Data request: How about this molecule: CCCCN(CCCC)CCCN(CCCN(CCCC)CCCC)c1cc(C)nc(Nc2ccc(Br)cc2)n1
Data returned: -4

Data request: // repeat for Nc1ncc(-c2cn[nH]c2)cc1-c1nc2ccc(F)cc2[nH]1 and report
Data returned: -3

Data request: Now the molecule Cc1cc(Nc2ncc(C#N)c(Nc3ccccc3C(N)=O)n2)ccc1N1CCN(C)CC1
Data returned: 0

Data request: // repeat for CCN(CC)C(C)(C)CN(Cc1ccc(-c2ccc(C(F)(F)F)cc2)cc1)C(=O)Cn1c(CCc2cccc(F)c2F)nc(=O)c2ccccc21 and report
Data returned: -2

Data request: Please do the same for COc1ccc(-c2nc(NC(=O)Cc3ccc4c(c3)OCCO4)sc2C)cc1 as well.
Data returned: 2

Data request: Cool, now CN1CCN(c2ccc(Nc3ncc(Cl)c(Nc4cccnc4C(N)=O)n3)cc2)CC1
Data returned: -1

Data request: Item: Brc1ccsc1-c1nc(NC2CCN(Cc3ccccc3)CC2)no1
Data returned: -2

Data request: Moving on to CC(=O)Nc1ccc(S(=O)(=O)NC2=NC(C)(C)N(OCc3ccc(Cl)c(Cl)c3)C(N)=N2)cc1
Data returned: 2
